Overview of recorded % inhibition Apo pol 5' for various molecules
- experimental system: P. falciparum apicoplast DNA polymerase (Pf-apPOL) (Plasmodium falciparum, UniProt Q8ILY1)
- Sequence (Q8ILY1 entry or part of it): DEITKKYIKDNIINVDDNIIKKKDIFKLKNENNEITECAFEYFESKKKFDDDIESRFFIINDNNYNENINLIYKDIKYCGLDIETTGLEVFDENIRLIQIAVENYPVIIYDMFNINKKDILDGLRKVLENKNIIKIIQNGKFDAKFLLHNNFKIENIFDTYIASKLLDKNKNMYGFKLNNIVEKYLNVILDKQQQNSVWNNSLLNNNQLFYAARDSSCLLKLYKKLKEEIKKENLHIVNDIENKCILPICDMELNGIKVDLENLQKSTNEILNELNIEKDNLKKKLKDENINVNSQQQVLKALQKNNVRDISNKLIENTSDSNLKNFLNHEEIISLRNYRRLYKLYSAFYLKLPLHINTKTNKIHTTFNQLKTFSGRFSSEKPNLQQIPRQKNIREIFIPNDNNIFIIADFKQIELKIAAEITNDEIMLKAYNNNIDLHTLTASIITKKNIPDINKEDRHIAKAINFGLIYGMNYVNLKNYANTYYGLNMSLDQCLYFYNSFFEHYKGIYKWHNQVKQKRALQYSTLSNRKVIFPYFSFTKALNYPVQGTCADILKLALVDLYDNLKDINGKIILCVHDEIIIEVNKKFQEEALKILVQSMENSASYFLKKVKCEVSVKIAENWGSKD
- assay: Fluorescence-based high-throughput DNA polymerase assay (molecular beacon), primary screen and dose-response
- Assay type: biochemical
- reported conditions: conc. 20; 5'; DRC-2
measured property: % inhibition Apo pol 5' (%)

[
  {
    "smiles input": "O=C1NCCCn2cc(S(=O)(=O)Nc3ccccc3)cc21",
    "experimental system": "P. falciparum apicoplast DNA polymerase (Pf-apPOL) (Plasmodium falciparum, UniProt Q8ILY1)",
    "recorded measurement": 44
  },
  {
    "smiles input": "COc1ccc(C=C2Oc3c(ccc4c3CN(c3ccc5c(c3)OCO5)CO4)C2=O)cc1OC",
    "experimental system": "P. falciparum apicoplast DNA polymerase (Pf-apPOL) (Plasmodium falciparum, UniProt Q8ILY1)",
    "recorded measurement": 45
  },
  {
    "smiles input": "O=C(CSc1nnc(-c2ccncc2)[nH]1)c1ccc(O)c(O)c1",
    "experimental system": "P. falciparum apicoplast DNA polymerase (Pf-apPOL) (Plasmodium falciparum, UniProt Q8ILY1)",
    "recorded measurement": 53
  },
  {
    "smiles input": "O=c1cc(-c2ccccc2Cl)oc2c(NS(=O)(=O)c3cc(Cl)cc(Cl)c3O)ccc(O)c12",
    "experimental system": "P. falciparum apicoplast DNA polymerase (Pf-apPOL) (Plasmodium falciparum, UniProt Q8ILY1)",
    "recorded measurement": 11
  },
  {
    "smiles input": "Cc1cc(C)c(O)c(/N=C/c2cc([N+](=O)[O-])cc(Br)c2O)c1",
    "experimental system": "P. falciparum apicoplast DNA polymerase (Pf-apPOL) (Plasmodium falciparum, UniProt Q8ILY1)",
    "recorded measurement": 17
  }
]

Hey, just so you know, these numbers are from paper PMC9090415.
